B1: tRNA (parent)
chain: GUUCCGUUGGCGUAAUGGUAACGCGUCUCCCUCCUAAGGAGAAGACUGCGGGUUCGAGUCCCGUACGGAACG

Variants of: B1
Test: yeast fitness relative to wild type (ratio to wild type); higher = fitter; tRNA-Arg(CCU), competitive growth, 37 C, YPD
Fewer inactive variants are shown than the library holds.
Measured yeast fitness of individual entries
Give a plain numeric answer without units written out.

Known yeast fitness results, listed for orientation:
MUTATION_DESCRIPTOR: G10A A21G C22U
VALUE_MEASURED: 0.606

MUTATION_DESCRIPTOR: U19A A36U
VALUE_MEASURED: 0.653

MUTATION_DESCRIPTOR: U8C A65U A69C
VALUE_MEASURED: 0.615

Now for the variant whose yeast fitness we want.
Query string: Reported yeast fitness, variant G10C G12A A15G G63A : ____
Result string: 0.643

Hello, the source for this data is the RNAGym collection of RNA variant scans (doi:10.1126/science.aae0568), in case you need it.
